src = PubChem BioAssay (NCI)

Could you please report measured TGI for the items listed next?
- Test system: TK-10 renal
- PROTOCOL_DESCRIPTION: NCI tumour cell line growth inhibition, 48 h

COMPOUND: NC(=O)C1(N2CCCCC2)CCN(CCCC(=O)c2ccc(F)cc2)CC1
TARGET_DESC: TK-10 renal
TGI: > 100 µM
//
COMPOUND: C/C=C/C=C/c1nc(C#N)c(N)o1
TARGET_DESC: TK-10 renal
TGI: > 100 µM

For the 5 compounds below, give their TGI values.
1. CCCCCCCCCCN=C(c1ccc(N(C)C)cc1)c1ccc(N(C)C)cc1
2. CNC(SC)=C1C(=O)OC(C)(C)OC1=O
3. CN(C)C(=S)S
4. Cc1ncc(C(=O)Nc2ccc(CN3CCN(C)CC3)c(C(F)(F)F)c2)cc1C#Cc1cnc(NC2CC2)c2ncccc12
5. CC(=O)N(C(C)=O)C1=C2c3ccccc3N(S(=O)(=O)c3ccccc3)C2n2c(=O)n(-c3ccccc3)c(=O)n2C1 (configuration not stated)

["49.7 µM", "> 100 µM", "> 100 µM", "1.31 µM", "> 100 µM"]

----------
- Test system: OVCAR-3 ovarian
- PROTOCOL_DESCRIPTION: NCI tumour cell line growth inhibition, 48 h
Could you please report measured TGI for the items listed next?
Numbers only, in µM.

Batch request: TGI for each of the following molecules.
1. O=C(NCCN1CCOCC1)c1ccc2cc(C(=O)N3CC(CCl)c4ccc([N+](=O)[O-])cc43)[nH]c2c1 (centres undefined)
2. CCC(=C(c1ccc(OCCCN(C)C)cc1)c1ccc(OCCCN(C)C)cc1)c1ccc(Cl)cc1

1: 33.1; 2: 1.08

----------
- Tested on: COLO 205 colon
- PROTOCOL_DESCRIPTION: NCI tumour cell line growth inhibition, 48 h
For each of the compounds below, state its TGI.

Worked cases, TGI given:
COMPOUND: COC1OC(C)C(OCc2ccccc2)C(OS(=O)(=O)c2ccc(C)cc2)C1OS(=O)(=O)c1ccc(C)cc1 (stereo not drawn)
TARGET_DESC: COLO 205 colon
TGI: > 100 µM

COMPOUND: O=C1C=CC(=O)N1Nc1ccc([N+](=O)[O-])cc1[N+](=O)[O-]
TARGET_DESC: COLO 205 colon
TGI: > 60.7 µM

Fill blank: measured TGI of the compound `C=CCNC(=S)/N=C/c1c(O)c2ccccc2oc1=O` is ____.
> 100 µM

----------
- System: T-47D breast
- PROTOCOL_DESCRIPTION: NCI tumour cell line growth inhibition, 48 h
MEASURE_NAME: TGI

Solved cases below.
MOLECULE: Oc1ccccc1/C=N/c1nc2cc3sc(/N=C/c4ccccc4O)nc3cc2s1
TARGET_DESC: T-47D breast
TGI: > 100 µM

MOLECULE: C=C(CN1CCc2ccccc2C1)c1ccc(C(=O)Nc2ccccc2N)cc1
TARGET_DESC: T-47D breast
TGI: > 39 µM

MOLECULE: CCN(C(=S)N[C@@H](Cc1ccccc1)C(=O)N[C@@H](CC(C)C)C(=O)OC)c1ccccc1
TARGET_DESC: T-47D breast
TGI: > 100 µM

MOLECULE: O=C1/C(=C\c2cccc(Oc3ccccc3)c2)S(=O)(=O)C(c2ccccc2)N1Cc1ccccc1 (stereo not given)
TARGET_DESC: T-47D breast
TGI: > 100 µM

Next, consider the following molecule.
Form field: reported TGI of CCN(CCO)CC1COc2ccccc2O1 (stereo not given)
> 100 µM

----------
I'd be grateful if you could share measured TGI for these entries.
- Test system: MCF7 breast
- PROTOCOL_DESCRIPTION: NCI tumour cell line growth inhibition, 48 h
Where a SMILES comes first, the peptide text is derived from it. The star is where a group is joined. Boc = CC(C)(C)OC(=O)*

COMPOUND: COC(=O)c1c2c(cc3c1CC1(C3)Cc3cc4c(c(C(=O)OC)c3C1)CCCC4)CCCC2
TGI: > 100 µM
//
COMPOUND: O=c1c2c3c(sc2n2c(-c4cc(-c5ccccc5)nn4-c4ccccc4)nnc2n1Cc1ccccc1)CCCC3
TGI: > 100 µM
//
COMPOUND: CC(=O)NNc1nc(C)c(C(=O)NNC(=O)C(=O)Nc2nc3ccc([N+](=O)[O-])cc3s2)s1
TGI: > 100 µM
//
COMPOUND: N#C/C(=C\c1cc(Br)c(O)c(Br)c1)c1cccnc1
TGI: > 100 µM
//
COMPOUND: CO[C@]12CC(=O)C3(C(C[C@H]4CC5CC=C6C[C@@H](OC(C)=O)CC[C@]6(OC(C)=O)C5C[C@@]43C)C1)C1C[C@H]3[C@@H]4CC=C5C[C@@H](OC(C)=O)CC[C@]5(OC(C)=O)[C@H]4CC[C@]3(C)C12 (stereo partly drawn)
TGI: > 100 µM

Please give TGI for each item listed below.
1. COc1ccc2cc3c4cc5c(cc4cc[n+]3cc2c1OC)OCO5
2. Cn1c(/C(C#N)=C/c2ccc3ccccc3c2)cc2ccccc21
3. CC(C)(C)OC(=O)NCC(=O)NCC(=O)NCC(=O)NCC(=O)O (Boc-GGGG-OH)
4. C/C(CC1C2CCCC1C2)=N\NC(N)=O (stereo not drawn)

> 96.2 µM
> 100 µM
> 100 µM
> 100 µM

# batch size: 5; output TGI per entry
1. Cc1ccc2c(c1)Sc1ccc(N=NN(C)C)cc1N2C
2. COc1nc(C#CCC(C)O)nc(OC)n1 (stereo not drawn)
3. CCCCCCCCCCCC[n+]1ccccc1 (tested in a mixture with another compound)
4. CC1(C)N=C(N)N=C(N)N1c1ccc(OCC(=O)Nc2ccccc2)c(Cl)c1
5. O=C1C(SCCO)=C(SCCO)C(=O)c2ccccc21

["> 100 µM", "33.5 µM", "5.5 µM", "> 100 µM", "2.36 µM"]

Field: TGI. Fill in for each record below.
1. O=C1C[C@H](Sc2ccccc2)C2(OCCO2)[C@@H](Sc2ccccc2)C1
2. O=S(=O)(O)c1cc2ccc1/C=C\c1ccc(cc1S(=O)(=O)O)N=Nc1ccc(c(S(=O)(=O)O)c1)/C=C\c1ccc(cc1S(=O)(=O)O)N=N2
3. O=C1c2cccnc2-c2nc(-c3ccncc3)cc3c2c1nc1ccccc13
4. CC(C)/C(Cl)=N\OC(=O)Nc1ccc(C#N)cc1

1: 6.01 µM; 2: > 100 µM; 3: 23.5 µM; 4: 22.4 µM

----------
- System: MDA-N
- PROTOCOL_DESCRIPTION: NCI tumour cell line growth inhibition, 48 h
MEASURE_NAME: TGI

COMPOUND: CC(O)C1CC1(CO)CNc1cc(Cl)nc(N)n1 (stereo unspecified)
TGI: > 100 µM

Could I get TGI for every one of these entries?
1. CSc1cc(Cl)c(C)cc1S(=O)(=O)NC(=O)NNc1ccc(Cl)cc1
2. CSc1c(C#N)c(N)n2c1C(=O)N(c1ccccc1)C2=S
3. N#CC(C#N)=CNC(=S)c1ccncc1
4. O=C(CCCN1CCC2(CC1)CC(=O)N(N1CCOCC1)C2=O)c1ccccc1
5. C=C[C@@H]1C(CO)=CCC2[C@H]1CCC1C(C)(C)C(=O)CC[C@]21C (stereo partly specified)

1. > 100 µM
2. > 100 µM
3. > 100 µM
4. > 100 µM
5. > 100 µM

----------
- Test system: HCT-116 colon
- PROTOCOL_DESCRIPTION: NCI tumour cell line growth inhibition, 48 h; in the data active = GI50 below about 0.43 µM; inactive = the rest
Please state which outcome applies, choosing from true (1) (active), false (0) (inactive)

Answered cases to consult:
COMPOUND_STRING: COc1cc2c(cc1-c1c(C)noc1C)cc(C)c(=O)n2Cc1ccccn1
CLASS_ASSIGNMENT: false (0)
--
COMPOUND_STRING: COc1ccccc1/C=C/C(=O)/C=C/c1ccccc1O
CLASS_ASSIGNMENT: true (1)
--
COMPOUND_STRING: CC1(C)N=C(N)N=C(N)N1c1ccc(OCC(=O)Nc2ccccc2)c(Cl)c1
CLASS_ASSIGNMENT: false (0)
--
COMPOUND_STRING: O=C1c2cccnc2-c2nc(-c3ccncc3)cc3c2c1nc1ccccc13
CLASS_ASSIGNMENT: false (0)
--
COMPOUND_STRING: COCCOCCOCc1n(Cc2ccc3ccccc3n2)c2ccccc2[n+]1Cc1ccc2ccccc2c1
CLASS_ASSIGNMENT: true (1)
--
COMPOUND_STRING: CCN(CC)CCNC(=O)c1cn2ncnc(Oc3ccc(NC(=O)Nc4ccc(Cl)c(C(F)(F)F)c4)c(F)c3)c2c1C
CLASS_ASSIGNMENT: false (0)
--
COMPOUND_STRING: CC(=O)N[C@H](C(=O)N[C@@H](CCCNC(=N)N)C(=O)N[C@@H](CCCCN)C(=O)N[C@@H](CCCNC(=N)N)C(=O)N[C@]1(C)CCCCCC/C=C\CCC[C@@](C)(C(=O)N[C@@H](CCCNC(=N)N)C(=O)N[C@@H](CCC(=O)O)C(=O)N[C@@H](CC(C)C)C(=O)N[C@H](C(=O)N[C@@H](CCC(=O)O)C(N)=O)C(C)C)NC(=O)[C@H](CCC(N)=O)NC(=O)[C@H](CC(C)C)NC(=O)[C@H](CC(C)C)NC(=O)[C@H](CCCNC(=N)N)NC(=O)[C@H](CCCNC(=N)N)NC(=O)[C@H](CC(C)C)NC1=O)C(C)C
CLASS_ASSIGNMENT: false (0)
--
COMPOUND_STRING: CCSc1nc(N)c2cn[nH]c2n1
CLASS_ASSIGNMENT: false (0)
--
COMPOUND_STRING: COc1ccc(-c2nnc(N3CCN(C(=O)CN4CCN(c5ccc(OC)cc5)CC4)CC3)nc2-c2ccc(OC)cc2)cc1
CLASS_ASSIGNMENT: false (0)

Answer briefly: the call reported for `OB1OCc2cc(/C=C/c3cccc(C(F)(F)F)c3)ccc21` in this assay.
false (0)
